Tested on: SK-MEL-2 melanoma
Assay: NCI tumour cell line growth inhibition, 48 h; in the data active = GI50 below about 0.43 µM; inactive = the rest
Classes used: Y (active), N (inactive)

compound | measurement_target | assigned_label
N#Cc1cnc(Nc2cc(NC[C@H]3CNCCO3)c(C(F)(F)F)cn2)cn1 | SK-MEL-2 melanoma | N
Nc1nc(/C=C\c2ccccc2)nc(N2CCN(c3ccccc3)CC2)n1 | SK-MEL-2 melanoma | N
CCN(Cc1cccc(Cl)c1)c1ccc(CO)c(Cl)c1 | SK-MEL-2 melanoma | N
Cc1cn(Cc2ccc(C34CC5CC(CC(C5)C3)C4)c(O)c2)c(=O)[nH]c1=O | SK-MEL-2 melanoma | N
O=C(NCC1CCCO1)c1ccc(NC2=C(Cl)C(=O)N(Cc3ccccc3)C2=O)cc1 (stereo not given) | SK-MEL-2 melanoma | N
CCCCCCCCCCCCOC1C(CNC(=O)C2OC3OC(C)(C)OC3C2NC(=O)CN2CCN(c3ccc(OC)cc3)CC2)OC2OC(C)(C)OC21 (stereo not given) | SK-MEL-2 melanoma | N
CC(C)CCCCCCCCCCCCC(=O)NCC(=O)NC1C(O)C(O)C(Nc2ncnc3nc[nH]c23)OC1C(O)CO (stereo not given) | SK-MEL-2 melanoma | Y
COc1ccc([C@@]23Oc4cc(OC)cc(OC)c4[C@]2(O)[C@H](O)[C@H](C(N)=O)[C@H]3c2ccccc2)cc1 | SK-MEL-2 melanoma | Y
Oc1c(Cl)cc(Cl)c2ccc(Cn3cc(-c4ccc(C(F)(F)F)cc4)nn3)nc12 | SK-MEL-2 melanoma | N
Cc1cc2c(-c3nc4ccccn4c3N)c(O)c(O)cc2c(O)c1-c1c(C)cc2c(-c3nc4ccccn4c3N)c(O)c(O)cc2c1O | SK-MEL-2 melanoma | N
